- ASSAY SYSTEM: hERG (Homo sapiens, UniProt Q12809)
- Construct: host or cells: HEK-293S cells (membranes)
- Sequence (Q12809 whole entry): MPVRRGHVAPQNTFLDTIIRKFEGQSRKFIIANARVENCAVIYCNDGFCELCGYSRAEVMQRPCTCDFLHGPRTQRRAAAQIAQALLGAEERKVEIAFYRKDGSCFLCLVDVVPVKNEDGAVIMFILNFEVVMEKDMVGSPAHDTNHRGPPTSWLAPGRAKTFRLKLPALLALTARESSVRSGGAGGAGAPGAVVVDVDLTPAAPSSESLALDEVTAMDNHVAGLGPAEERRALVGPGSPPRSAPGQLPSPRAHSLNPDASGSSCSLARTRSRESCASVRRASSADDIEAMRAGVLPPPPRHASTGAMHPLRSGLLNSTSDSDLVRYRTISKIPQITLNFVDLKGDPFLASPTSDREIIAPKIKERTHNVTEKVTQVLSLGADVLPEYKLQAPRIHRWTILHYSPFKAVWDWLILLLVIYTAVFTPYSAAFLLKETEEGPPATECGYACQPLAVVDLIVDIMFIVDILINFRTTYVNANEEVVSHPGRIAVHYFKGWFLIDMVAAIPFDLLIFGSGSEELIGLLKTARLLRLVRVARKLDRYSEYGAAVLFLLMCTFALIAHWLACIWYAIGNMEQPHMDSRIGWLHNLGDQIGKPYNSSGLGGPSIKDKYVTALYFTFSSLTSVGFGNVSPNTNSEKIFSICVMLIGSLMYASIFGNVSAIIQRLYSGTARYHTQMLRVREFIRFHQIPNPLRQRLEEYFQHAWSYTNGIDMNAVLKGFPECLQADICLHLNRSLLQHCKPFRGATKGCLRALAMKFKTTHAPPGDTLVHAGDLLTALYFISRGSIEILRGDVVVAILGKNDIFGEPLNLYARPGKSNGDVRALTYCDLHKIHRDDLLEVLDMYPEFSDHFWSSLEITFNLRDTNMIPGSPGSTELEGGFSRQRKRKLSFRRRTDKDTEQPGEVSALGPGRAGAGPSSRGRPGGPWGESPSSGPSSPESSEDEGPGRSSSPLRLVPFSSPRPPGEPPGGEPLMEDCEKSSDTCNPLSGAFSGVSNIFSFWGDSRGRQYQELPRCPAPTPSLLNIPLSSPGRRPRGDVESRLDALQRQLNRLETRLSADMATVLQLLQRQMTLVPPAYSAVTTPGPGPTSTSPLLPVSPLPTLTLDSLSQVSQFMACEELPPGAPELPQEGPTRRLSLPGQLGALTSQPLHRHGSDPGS
- TEST: Radioligand binding assay for [3H]-dofetilide binding to the hERG product expressed in HEK-293S cells
- CONDITION PARAMETERS: human, membranes of HEK-293S cells expressing hERG, pH 7.4, probe [3H]-dofetilide (3H-UK068798); displacement of 3H-UK068798 (~5 nM) from membranes of hERG expressing HEK-293S cells; Cheng-Prusoff
Ki at 1.5 h values by entry

| MOLECULE | Ki at 1.5 h |
| --- | --- |
| CNC(=O)c1ccc(N2CCc3nc(OCCCN4CCC[C@H]4C)ccc3C2)nc1 [Example 68] | 100 µM |
| NC(=O)c1ccc(N2CCc3nc(OCCCN4CCCCC4)ccc3C2)nc1 [Example 48] | 100 µM |
| CN(C)C(=O)c1ccc(N2CCc3nc(OCCCN4CCCC4)ccc3C2)cn1 [Example 67] | 100 µM |

----------
Heads up, these compounds all have Ki values measured for hERG product (Homo sapiens, UniProt Q12809).
RESULT TYPE: Ki (µM)

| COMPOUND | RESULT TYPE | VALUE REPORTED |
| --- | --- | --- |
| Cc1ccc(N2CCc3nc(OCCCN4CCC[C@H]4C)ccc3C2)cn1 [Example 24] | Ki | 35.6 |
| CC(C)N1CCC(Oc2ccc3c(n2)CCN(c2cnccn2)C3)CC1 [Example 71] | Ki | 22.9 |
| CNC(=O)c1ccc(N2CCc3nc(OCCCN4CCCC4)ccc3C2)nc1 [Example 44] | Ki | 85.8 |
| Cc1ccc(N2CCc3nc(OC4CCN(C(C)C)CC4)ccc3C2)cn1 [Example 72] | Ki | 13.7 |
| C[C@H]1CCCN1CCCOc1ccc2c(n1)CCN(c1cccnn1)C2 [Example 25] | Ki | 55.9 |
| CNC(=O)c1ccc(N2CCc3nc(OCCCN4CCC[C@H]4C)ccc3C2)cn1 [Example 64] | Ki | 55.5 |
| CNC(=O)c1ccc(N2CCc3nc(OC4CCN(C(C)C)CC4)ccc3C2)nc1 [Example 70] | Ki | 94.4 |
| c1cnnc(N2CCc3nc(OCCCN4CCCCC4)ccc3C2)c1 [Example 29] | Ki | 64.4 |
| C[C@@H]1CCCN1CCCOc1ccc2c(n1)CCN(c1cnccn1)C2 [Example 23] | Ki | 11.5 |
| C[C@@H]1CCCN1CCCOc1ccc2c(n1)CCN(c1cccnn1)C2 [Example 22] | Ki | 51.8 |
| CNC(=O)c1ccc(N2CCc3nc(OCCCN4CCCC4)ccc3C2)cn1 [Example 65] | Ki | 46.1 |
| C[C@H]1CCCN1CCCOc1ccc2c(n1)CCN(c1cnccn1)C2 [Example 26] | Ki | 9.88 |

----------
- ASSAY SYSTEM: human histamine H3 receptor (Homo sapiens)
- Sequence (Q9Y5N1 whole entry): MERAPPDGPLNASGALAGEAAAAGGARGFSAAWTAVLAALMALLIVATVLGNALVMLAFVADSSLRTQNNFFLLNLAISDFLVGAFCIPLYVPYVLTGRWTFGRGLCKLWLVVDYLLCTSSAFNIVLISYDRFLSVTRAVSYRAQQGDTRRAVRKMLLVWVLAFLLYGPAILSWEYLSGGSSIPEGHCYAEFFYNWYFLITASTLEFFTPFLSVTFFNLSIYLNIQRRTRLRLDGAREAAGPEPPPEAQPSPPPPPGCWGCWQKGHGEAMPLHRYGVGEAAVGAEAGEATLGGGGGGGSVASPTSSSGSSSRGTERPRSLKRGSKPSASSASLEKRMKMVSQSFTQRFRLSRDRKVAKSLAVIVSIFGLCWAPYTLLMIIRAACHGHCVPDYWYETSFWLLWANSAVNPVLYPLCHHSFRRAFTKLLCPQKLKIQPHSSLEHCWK
- TEST: H3 cell based functional assay (cAMP through β-lactamase reporter gene activity)
- CONDITION PARAMETERS: functional Ki from antagonist IC50 by Cheng-Prussoff; HEK-293 cells, 10 μM forskolin, 1 nM imetit
pKi: −log10 of the molar value.
Output true (1) for pKi not less than 8; output false (0) otherwise.

| SMI | LABEL |
| --- | --- |
| C[C@H]1CCCN1CCCOc1ccc2c(n1)CCN(c1cnccn1)C2 | true (1) |
| CNC(=O)c1ccc(N2CCc3nc(OCCCN4CCCC4)ccc3C2)nc1 | false (0) |
| c1cnnc(N2CCc3nc(OCCCN4CCCCC4)ccc3C2)c1 | false (0) |
| CN(C)C(=O)c1ccc(N2CCc3nc(OCCCN4CCCC4)ccc3C2)cn1 | false (0) |
| CNC(=O)c1ccc(N2CCc3nc(OCCCN4CCC[C@H]4C)ccc3C2)cn1 | true (1) |
| Cc1ccc(N2CCc3nc(OC4CCN(C(C)C)CC4)ccc3C2)cn1 | true (1) |
| C[C@H]1CCCN1CCCOc1ccc2c(n1)CCN(c1cccnn1)C2 | true (1) |

----------
- ASSAY SYSTEM: human histamine H3 receptor (Homo sapiens)
- TEST: H3 cell based functional assay (cAMP through β-lactamase reporter gene activity)
- CONDITION PARAMETERS: functional Ki from antagonist IC50 by Cheng-Prussoff; HEK-293 cells, 10 μM forskolin, 1 nM imetit
- Protocol: H3 Cell Based Functional Assay Compounds were evaluated using a cell based functional assay measuring cAMP through β-lactamase reporter gene activity. A stable cell line was generated from HEK-293 cells expressing a CRE β-lactamase reporter gene and transfected with human histamine H3 receptor cDNA. […]

| COMPOUND | Ki, nM |
| --- | --- |
| C[C@@H]1CCCN1CCCOc1ccc2c(n1)CCN(c1cccnn1)C2 [Example 22] | 9.16 |
| CC(C)N1CCC(Oc2ccc3c(n2)CCN(c2cnccn2)C3)CC1 [Example 71] | 13.7 |
| Cc1ccc(N2CCc3nc(OCCCN4CCC[C@H]4C)ccc3C2)cn1 [Example 24] | 8.21 |
| C[C@@H]1CCCN1CCCOc1ccc2c(n1)CCN(c1cnccn1)C2 [Example 23] | 10.3 |
| CNC(=O)c1ccc(N2CCc3nc(OC4CCN(C(C)C)CC4)ccc3C2)nc1 [Example 70] | 6.32 |
| NC(=O)c1ccc(N2CCc3nc(OCCCN4CCCCC4)ccc3C2)nc1 [Example 48] | 14.5 |
| CNC(=O)c1ccc(N2CCc3nc(OCCCN4CCC[C@H]4C)ccc3C2)nc1 [Example 68] | 8.28 |
| CNC(=O)c1ccc(N2CCc3nc(OCCCN4CCCC4)ccc3C2)cn1 [Example 65] | 16.3 |
